Data origin, for the record: patent US12162890B2

- Target: HEK293 cells with stable expression of the GRIN1 gene and tetracycline-inducible expression of the GRIN2B gene (NMDA receptor, NR2B) (Homo sapiens, UniProt Q13224)
- Sequence (Q13224 27-1484, other chains not shown): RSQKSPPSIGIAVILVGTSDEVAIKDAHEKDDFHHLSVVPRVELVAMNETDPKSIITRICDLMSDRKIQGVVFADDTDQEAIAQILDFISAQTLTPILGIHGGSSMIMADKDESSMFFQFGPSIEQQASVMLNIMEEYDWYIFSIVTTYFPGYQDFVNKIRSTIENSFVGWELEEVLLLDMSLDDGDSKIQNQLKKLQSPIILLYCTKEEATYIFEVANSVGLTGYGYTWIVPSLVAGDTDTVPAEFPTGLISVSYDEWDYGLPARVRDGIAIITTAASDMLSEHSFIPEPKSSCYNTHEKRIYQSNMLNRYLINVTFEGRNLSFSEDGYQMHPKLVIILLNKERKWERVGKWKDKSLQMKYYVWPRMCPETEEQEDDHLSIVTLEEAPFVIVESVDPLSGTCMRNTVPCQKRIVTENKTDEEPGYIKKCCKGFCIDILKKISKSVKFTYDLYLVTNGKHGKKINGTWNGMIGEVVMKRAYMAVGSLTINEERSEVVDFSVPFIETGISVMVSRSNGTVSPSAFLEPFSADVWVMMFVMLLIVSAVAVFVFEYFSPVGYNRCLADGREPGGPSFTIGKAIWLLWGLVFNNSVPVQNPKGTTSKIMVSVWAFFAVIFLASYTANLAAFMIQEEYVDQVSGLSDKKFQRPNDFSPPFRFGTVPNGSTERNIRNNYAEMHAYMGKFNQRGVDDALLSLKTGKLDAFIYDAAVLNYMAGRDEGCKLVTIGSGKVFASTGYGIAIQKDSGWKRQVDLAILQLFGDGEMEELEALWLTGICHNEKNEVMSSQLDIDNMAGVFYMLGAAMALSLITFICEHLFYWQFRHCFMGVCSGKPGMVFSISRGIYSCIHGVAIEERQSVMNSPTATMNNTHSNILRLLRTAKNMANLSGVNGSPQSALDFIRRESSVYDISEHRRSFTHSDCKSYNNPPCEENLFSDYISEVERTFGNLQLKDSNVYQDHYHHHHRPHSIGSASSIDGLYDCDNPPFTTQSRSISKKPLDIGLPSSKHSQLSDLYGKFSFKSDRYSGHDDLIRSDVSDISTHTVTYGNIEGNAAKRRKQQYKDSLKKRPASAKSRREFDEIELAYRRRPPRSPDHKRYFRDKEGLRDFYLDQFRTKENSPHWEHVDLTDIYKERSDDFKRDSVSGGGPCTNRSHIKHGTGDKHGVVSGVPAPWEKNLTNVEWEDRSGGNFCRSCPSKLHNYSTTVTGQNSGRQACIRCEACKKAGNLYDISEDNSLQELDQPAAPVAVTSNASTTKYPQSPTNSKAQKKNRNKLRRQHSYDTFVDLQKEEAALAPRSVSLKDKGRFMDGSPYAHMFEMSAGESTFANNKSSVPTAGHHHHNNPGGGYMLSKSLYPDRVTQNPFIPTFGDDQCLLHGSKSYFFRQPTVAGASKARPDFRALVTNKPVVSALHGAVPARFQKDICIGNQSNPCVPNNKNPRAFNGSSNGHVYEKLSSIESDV
- Experimental Details: Fluo-8 Ca2+ flux assay: reversal of Ro 25-6981-mediated suppression of the Ca2+ response to co-agonist (glutamate/glycine); further: test concentration or dose not given here
- Assay type: cell-based
- Test Settings: reversal of the Ro 25-6981 suppression of the Ca2+ response to co-agonist (glutamate/glycine)
Metric: Response Recovered (%)

Completed entries (count: 3):
In [3]: df
Out[3]:
                               input_smiles                  metric  endpoint_unit  value
0  O=C(Cn1cnc2ccn(-c3ccc(Cl)cc3)c2c1=O)NC1CC1  Response Recovered (%)              %      0
1  O=C(Cn1cnc2csc(-c3ccc(Cl)c(C(F)(F)F)c3)c2c1=O)N1CCCC1  Response Recovered (%)              %     34
2  O=C(Cn1cnc2csc(-c3ccc(C(F)(F)F)cc3)c2c1=O)N1CC(F)(F)C1  Response Recovered (%)              %     12

(P) O=C(Cn1ccc2cccc(-c3ccc(Cl)c(C(F)(F)F)c3)c2c1=O)N1CCCC1
(Q) Cn1cc(-n2cc(-c3ccc(F)c(C(F)(F)F)c3)c3c(=O)n(CC(=O)N4CC(C)(F)C4)ccc32)cn1
(R) O=C(Cn1cnc2ccn(-c3ccc(Cl)cc3)c2c1=O)N1CCC(F)(F)CC1
(S) O=C(Cn1ccc2scc(-c3cnc(Cl)nc3)c2c1=O)N1CC(F)(CF)C1
(T) O=C(Cn1ccc2scc(-c3cnc(Cl)c(Cl)c3)c2c1=O)N1CC(F)(C2CC2)C1
**Query** Highest Response Recovered (%) first, then in falling order down to the smallest. Order the labels as requested and give them as your answer.
**Result** Q, T, P, R, S
(Q: 140%, T: 64%, P: 37%, R: 3%, S: −4.2%)

====

- Target: HEK293 cells with stable expression of the GRIN1 gene and tetracycline-inducible expression of the GRIN2B gene (NMDA receptor, NR2B) (Homo sapiens)
- Experimental Details: Fluo-8 Ca2+ flux assay: reversal of Ro 25-6981-mediated suppression of the Ca2+ response to co-agonist (glutamate/glycine)
- Assay type: cell-based
- Test Settings: reversal of the Ro 25-6981 suppression of the Ca2+ response to co-agonist (glutamate/glycine)
Metric: Response Recovered (%)

Completed entries (count: 3):
>>> df
                                   molecule                  metric  endpoint_unit  value
0  O=C(Cn1cnc2c(c(-c3ccc(F)c(Cl)c3)cn2CCO)c1=O)N1CCCC1  Response Recovered (%)              %     21
1  O=C(Cn1ccc2ccc(-c3ccc(Cl)c(Cl)c3)cc2c1=O)N1CCCC1  Response Recovered (%)              %      2
2  O=C(Cn1cnc2[nH]cc(-c3ccc(Cl)cc3)c2c1=O)N1CC(F)(F)C1  Response Recovered (%)              %     36

(a) O=C(Cn1ccn2ccc(-c3cnc(Cl)c(Cl)c3)c2c1=O)N1CC(F)(CF)C1
(b) O=C(Cn1cnc2csc(-c3ccc(C(F)(F)F)cc3)c2c1=O)N1CCCC1C(F)(F)F (centres unmarked)
(c) O=C(Cn1cnc2[nH]cc(-c3cnc(Cl)c(C(F)(F)F)c3)c2c1=O)N1CC(F)(F)C1
(d) Cc1cc(-c2cn(C3CC3)c3ccn(CC(=O)N4CC(C)(F)C4)c(=O)c23)ccc1Cl
(e) Cc1cn(CC(=O)N2CCC(F)C2)c(=O)n2c(-c3ccc(F)c(C(F)(F)F)c3)cnc12 (centres unmarked)
**Query** Highest Response Recovered (%) first, then in falling order down to the smallest. Order the labels as requested and give them as your answer.
**Result** d, a, e, c, b
(d: 140%, a: 85%, e: 35%, c: 18%, b: 2%)
